Give measured LD50 against S. mansoni adult worms for each item. Keep answers brief.
# Tested on: S. mansoni adult worms
# METHOD SUMMARY: Ex vivo adult worm killing, continuous exposure
# Set-up: species or system Schistosoma mansoni
# MEASUREMENT CONDITIONS: 5 days incubation, media and compounds replaced daily
Answers are plain numbers, in µM.

Sample answers from the record:
[
  {
    "COMPOUND": "O=[N+]([O-])c1ccc2c(c1)S(=O)(=O)C=C2",
    "UNIT ABBREV": "µM",
    "LD50 against S. mansoni adult worms": 7.08
  },
  {
    "COMPOUND": "COC(=O)CS(=O)(=O)c1nnc(C(Cc2ccccc2)NC(=O)OC(C)(C)C)o1 (centres unmarked)",
    "UNIT ABBREV": "µM",
    "LD50 against S. mansoni adult worms": 8.41
  },
  {
    "COMPOUND": "Oc1ccc(CNc2cccc(C(F)(F)F)c2)c2cccnc12",
    "UNIT ABBREV": "µM",
    "LD50 against S. mansoni adult worms": 18.2
  },
  {
    "COMPOUND": "O=c1c(Cl)c(-n2cc(CO)nn2)cnn1-c1ccccc1",
    "UNIT ABBREV": "µM",
    "LD50 against S. mansoni adult worms": 4.9
  }
]

# evaluate next
Problem: What value of measured LD50 against S. mansoni adult worms is listed for COc1ccc([N+](=O)[O-])c(S(=O)(=O)c2ccc(Cl)cc2)n1 ?
Solution: 10.1

====

# TARGET SYSTEM: hGR (Homo sapiens, UniProt P00390)
# Sequence (P00390 44-522): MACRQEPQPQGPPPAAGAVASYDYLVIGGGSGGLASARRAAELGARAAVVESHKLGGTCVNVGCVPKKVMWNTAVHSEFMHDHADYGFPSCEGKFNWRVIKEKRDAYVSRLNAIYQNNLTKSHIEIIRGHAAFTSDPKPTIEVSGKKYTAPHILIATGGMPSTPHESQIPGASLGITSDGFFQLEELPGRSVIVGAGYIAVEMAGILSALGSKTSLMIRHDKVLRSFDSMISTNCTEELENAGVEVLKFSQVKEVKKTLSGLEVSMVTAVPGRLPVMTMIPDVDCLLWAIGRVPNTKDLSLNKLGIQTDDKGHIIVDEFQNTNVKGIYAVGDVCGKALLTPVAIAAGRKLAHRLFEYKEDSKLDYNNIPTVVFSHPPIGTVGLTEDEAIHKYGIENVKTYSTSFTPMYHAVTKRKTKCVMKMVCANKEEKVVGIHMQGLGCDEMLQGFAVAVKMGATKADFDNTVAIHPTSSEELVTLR
# METHOD SUMMARY: Inhibition of human glutathione reductase
# Assay type: biochemical
# MEASUREMENT CONDITIONS: at 2 mM (concentrations as high as 2 mM)
QUANTITY MEASURED: Inhibition of hGR

Sample answers from the record:
[
  {
    "MOLECULE": "COc1ccc(C(Nc2cc(C)ccn2)c2ccc3ccc(C)nc3c2O)cc1 (stereo not drawn)",
    "TARGET SYSTEM": "hGR (Homo sapiens, UniProt P00390)",
    "Inhibition of hGR": "did not inhibit"
  },
  {
    "MOLECULE": "COC(=O)CS(=O)(=O)c1nnc(C(Cc2ccccc2)NC(=O)OC(C)(C)C)o1 (stereo not drawn)",
    "TARGET SYSTEM": "hGR (Homo sapiens, UniProt P00390)",
    "Inhibition of hGR": "did not inhibit"
  },
  {
    "MOLECULE": "O=c1c(Cl)c(-n2cc(CO)nn2)cnn1-c1ccccc1",
    "TARGET SYSTEM": "hGR (Homo sapiens, UniProt P00390)",
    "Inhibition of hGR": "19%"
  },
  {
    "MOLECULE": "Oc1ccc(CNc2cccc(C(F)(F)F)c2)c2cccnc12",
    "TARGET SYSTEM": "hGR (Homo sapiens, UniProt P00390)",
    "Inhibition of hGR": "did not inhibit"
  }
]

State the recorded Inhibition of hGR for every item in the following list.
1. CCOC(=O)C(C(=O)OCC)c1cc(Br)c2noc3c2c1C(=O)c1ccccc1-3
2. CCN(c1ccccc1)S(=O)(=O)c1ccc(NC(=O)c2nc(S(C)(=O)=O)ncc2Cl)cc1

Solution:
25%
did not inhibit

====

# Tested on: S. mansoni adult worms
# METHOD SUMMARY: Ex vivo adult worm killing, continuous exposure
# Design: species or system Schistosoma mansoni
# MEASUREMENT CONDITIONS: 5 days incubation, media and compounds replaced daily
QUANTITY MEASURED: LD50 against S. mansoni adult worms (µM)
Answers are plain numbers, in µM.

Sample answers from the record:
[
  {
    "COMPOUND": "O=C(C1CCCCC1)N1CC(=O)N2CCc3ccccc3C2C1 (stereo not shown) [praziquantel, reference compound]",
    "UNIT ABBREV": "µM",
    "LD50 against S. mansoni adult worms": 0.5
  },
  {
    "COMPOUND": "Cc1c(-c2cnccn2)ssc1=S [oltipraz, reference compound]",
    "UNIT ABBREV": "µM",
    "LD50 against S. mansoni adult worms": 2
  },
  {
    "COMPOUND": "CCN(c1ccccc1)S(=O)(=O)c1ccc(NC(=O)c2nc(S(C)(=O)=O)ncc2Cl)cc1",
    "UNIT ABBREV": "µM",
    "LD50 against S. mansoni adult worms": 9.07
  }
]

Problem: What value of measured LD50 against S. mansoni adult worms is listed for COc1ccc(C(Nc2cc(C)ccn2)c2ccc3ccc(C)nc3c2O)cc1 (stereo not shown) ?
Solution: 12.4

====

Give measured pIC50 for each item. Keep answers brief.
# TARGET SYSTEM: TGR (DTNB reducing activity) (Schistosoma mansoni)
# Sequence (Q962Y6 1-598): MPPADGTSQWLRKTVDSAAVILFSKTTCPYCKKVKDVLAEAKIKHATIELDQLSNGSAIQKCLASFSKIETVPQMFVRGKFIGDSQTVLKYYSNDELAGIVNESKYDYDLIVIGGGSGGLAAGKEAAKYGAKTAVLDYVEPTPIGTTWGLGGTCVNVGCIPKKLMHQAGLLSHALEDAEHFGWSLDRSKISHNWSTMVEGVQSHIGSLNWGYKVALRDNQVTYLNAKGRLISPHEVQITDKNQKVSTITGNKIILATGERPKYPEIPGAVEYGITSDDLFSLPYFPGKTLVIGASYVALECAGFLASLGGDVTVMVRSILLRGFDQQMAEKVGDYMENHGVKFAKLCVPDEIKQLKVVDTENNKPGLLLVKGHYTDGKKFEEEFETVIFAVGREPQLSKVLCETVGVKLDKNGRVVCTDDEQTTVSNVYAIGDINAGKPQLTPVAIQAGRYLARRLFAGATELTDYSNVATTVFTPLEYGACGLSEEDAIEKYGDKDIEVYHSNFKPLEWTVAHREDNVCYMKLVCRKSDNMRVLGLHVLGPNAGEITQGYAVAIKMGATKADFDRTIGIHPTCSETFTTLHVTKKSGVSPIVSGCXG
# METHOD SUMMARY: TGR inhibition confirmatory assay, DTNB reduction
# Type: biochemical
# MEASUREMENT CONDITIONS: read-out: TGR IC50 Confirm; confirmatory assay
Numbers only, as −log10 of the molar value.

Sample answers from the record:
[
  {
    "COMPOUND": "O=[N+]([O-])c1ccc2c(c1)S(=O)(=O)C=C2",
    "QUANTITY MEASURED": "pIC50",
    "ASSAY RESULT": 5.70
  },
  {
    "COMPOUND": "O=c1c(Cl)c(-n2cc(CO)nn2)cnn1-c1ccccc1",
    "QUANTITY MEASURED": "pIC50",
    "ASSAY RESULT": 5.55
  },
  {
    "COMPOUND": "COc1ccc(C(Nc2cc(C)ccn2)c2ccc3ccc(C)nc3c2O)cc1 (centres unmarked)",
    "QUANTITY MEASURED": "pIC50",
    "ASSAY RESULT": 6.89
  },
  {
    "COMPOUND": "Oc1ccc(CNc2cccc(C(F)(F)F)c2)c2cccnc12",
    "QUANTITY MEASURED": "pIC50",
    "ASSAY RESULT": 7.05
  },
  {
    "COMPOUND": "COC(=O)CS(=O)(=O)c1nnc(C(Cc2ccccc2)NC(=O)OC(C)(C)C)o1 (centres unmarked)",
    "QUANTITY MEASURED": "pIC50",
    "ASSAY RESULT": 6.48
  }
]

State the recorded pIC50 for every item in the following list.
1. CCN(c1ccccc1)S(=O)(=O)c1ccc(NC(=O)c2nc(S(C)(=O)=O)ncc2Cl)cc1
2. COc1ccc([N+](=O)[O-])c(S(=O)(=O)c2ccc(Cl)cc2)n1
3. CCOC(=O)C(C(=O)OCC)c1cc(Br)c2noc3c2c1C(=O)c1ccccc1-3

Solution:
1. 6.68
2. 7.22
3. 6.85
